test: Antioxidant activity assessed as ABTS radical scavenging activity after 6 mins; assay type: physicochemical
property-label: IC50 (µg/mL)

Known IC50 results, listed for orientation:
COc1ccc(-c2coc3cc(O)ccc3c2=O)cc1 | 77.42
COc1ccc2c(c1)O[C@H]1c3ccc(O)cc3OC[C@@H]21 | 86.29
O=C1C=C(c2ccc(O)cc2O[C@@H]2O[C@H](CO)[C@@H](O)[C@H](O)[C@H]2O)C(Cc2ccc(O)cc2)O1 (stereo not given in full) | 46.72

(a) O=C(O)CC(=O)OC[C@H]1O[C@@H](Oc2ccc3c(c2)OCC2c4cc5c(cc4OC32)OCO5)[C@H](O)[C@@H](O)[C@@H]1O (stereo not given in full)
(b) O=C1C=C(c2ccc(O)cc2O)C(Cc2ccc(O)cc2)O1 (stereo not given)
Problem: Given the entries a and b , determine which has the lower reported IC50. Give the label of your selection. b

====

test: Antioxidant activity assessed as reduction of Fe3+ to Fe2+ after 20 mins; format: physicochemical
property-label: IC50 (µg/mL)

COc1ccc(C2=CC(=O)OC2Cc2ccc(O)cc2)c(O[C@@H]2O[C@H](CO)[C@@H](O)[C@H](O)[C@H]2O)c1 (some centres undefined) | 46.93
COc1ccc(-c2coc3cc(O)ccc3c2=O)cc1 | 62.57
O=C1C=C(c2ccc(O)cc2O)C(Cc2ccc(O)cc2)O1 (centres undefined) | 38.52
Cc1cc(C(C)(C)C)c(O)c(C(C)(C)C)c1 [BUTYLATED HYDROXYTOLUENE] | 41.64

(I) COc1ccc2c(c1)O[C@H]1c3ccc(O)cc3OC[C@@H]21
(II) O=C1C=C(c2ccc(O)cc2O[C@@H]2O[C@H](CO)[C@@H](O)[C@H](O)[C@H]2O)C(Cc2ccc(O)cc2)O1 (some centres undefined)
(III) COc1ccc(-c2coc3cc(O[C@@H]4O[C@H](CO)[C@@H](O)[C@H](O)[C@H]4O)ccc3c2=O)cc1
Order the items by recorded IC50; the first position goes to the largest value. # respond with the labels, arranged in the requested order I, III, II
(I: 82.37 µg/mL, III: 57.21 µg/mL, II: 39.81 µg/mL)

====

assay: Antioxidant activity assessed as DPPH radical scavenging activity after 30 mins; type: physicochemical
property-label: IC50 (µg/mL)

Known IC50 results, listed for orientation:
COc1ccc(C2=CC(=O)OC2Cc2ccc(O)cc2)c(O[C@@H]2O[C@H](CO)[C@@H](O)[C@H](O)[C@H]2O)c1 (some centres not stated) | 25.67
O=c1c(O)c(-c2ccc(O)c(O)c2)oc2cc(O)cc(O)c12 | 4.89
COc1ccc(-c2coc3cc(O[C@@H]4O[C@H](CO)[C@@H](O)[C@H](O)[C@H]4O)ccc3c2=O)cc1 | 34.17
COc1cc(O[C@@H]2O[C@H](CO)[C@@H](O)[C@H](O)[C@H]2O)c(O)cc1-c1coc2cc(O)ccc2c1=O | 20.45

(a) Cc1cc(C(C)(C)C)c(O)c(C(C)(C)C)c1 [BUTYLATED HYDROXYTOLUENE]
(b) OC[C@H]1O[C@@H](Oc2ccc3c(c2)OCC2c4cc5c(cc4OC32)OCO5)[C@H](O)[C@@H](O)[C@@H]1O (some centres not stated)
Problem: Given the entries a and b , determine which has the lower reported IC50. Give the label of your selection. a
(a: 9.23 µg/mL, b: 28.06 µg/mL)

(P) O=C(O)CC(=O)OC[C@H]1O[C@@H](Oc2ccc3c(c2)OCC2c4cc5c(cc4OC32)OCO5)[C@H](O)[C@@H](O)[C@@H]1O (some centres not stated)
(Q) COc1ccc2c(c1)O[C@H]1c3ccc(O)cc3OC[C@@H]21
Problem: Given the entries P and Q , determine which has the lower reported IC50. Give the label of your selection. P

(a) O=C1C=C(c2ccc(O)cc2O)C(Cc2ccc(O)cc2)O1 (configuration not stated)
(b) COc1ccc(-c2coc3cc(O)ccc3c2=O)cc1
Problem: Given the entries a and b , determine which has the lower reported IC50. Give the label of your selection. a
(a: 19.53 µg/mL, b: 43.51 µg/mL)
